target: F1 domain of mitochondrial F1FO-ATPase (Ca2+-activated F1-ATPase) (Sus scrofa, UniProt K7GLT8+P80021); construct: native whole F1FO-ATPase in frozen-thawed pig heart mitochondria; not purified F1; assay: ATP hydrolysis (Pi release) with partially purified F1 at […] melatonin; IC50 from the mitochondrial Ca2+-activated F1FO-ATPase (K'i […])
Sequence (K7GLT8 89-570): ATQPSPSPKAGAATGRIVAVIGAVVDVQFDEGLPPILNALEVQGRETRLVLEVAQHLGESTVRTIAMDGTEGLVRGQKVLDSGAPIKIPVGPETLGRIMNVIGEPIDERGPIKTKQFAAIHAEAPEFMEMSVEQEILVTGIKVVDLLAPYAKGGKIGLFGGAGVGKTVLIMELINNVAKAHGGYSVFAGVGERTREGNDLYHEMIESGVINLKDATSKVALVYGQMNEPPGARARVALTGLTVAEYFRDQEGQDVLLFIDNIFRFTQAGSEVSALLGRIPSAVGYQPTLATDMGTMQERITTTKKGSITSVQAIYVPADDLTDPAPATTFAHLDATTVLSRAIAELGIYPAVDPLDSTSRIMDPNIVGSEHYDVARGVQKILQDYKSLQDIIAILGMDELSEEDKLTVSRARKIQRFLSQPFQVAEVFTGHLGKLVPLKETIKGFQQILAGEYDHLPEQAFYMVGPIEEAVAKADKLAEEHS
Sequence (P80021 44-553): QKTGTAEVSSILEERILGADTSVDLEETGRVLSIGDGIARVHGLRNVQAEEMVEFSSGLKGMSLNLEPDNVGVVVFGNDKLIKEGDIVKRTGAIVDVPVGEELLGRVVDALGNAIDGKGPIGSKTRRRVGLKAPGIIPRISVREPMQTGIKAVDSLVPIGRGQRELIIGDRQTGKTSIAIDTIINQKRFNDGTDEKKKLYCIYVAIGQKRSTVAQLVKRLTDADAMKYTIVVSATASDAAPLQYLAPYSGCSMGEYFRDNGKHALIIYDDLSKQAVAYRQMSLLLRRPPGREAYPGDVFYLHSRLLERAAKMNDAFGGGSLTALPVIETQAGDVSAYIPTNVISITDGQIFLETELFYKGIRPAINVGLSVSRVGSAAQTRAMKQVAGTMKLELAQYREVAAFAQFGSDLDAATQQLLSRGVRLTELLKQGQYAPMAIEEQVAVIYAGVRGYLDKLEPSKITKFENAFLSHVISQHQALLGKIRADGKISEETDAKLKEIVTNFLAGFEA
Sequence (A0A286ZYL7 23-168 partner): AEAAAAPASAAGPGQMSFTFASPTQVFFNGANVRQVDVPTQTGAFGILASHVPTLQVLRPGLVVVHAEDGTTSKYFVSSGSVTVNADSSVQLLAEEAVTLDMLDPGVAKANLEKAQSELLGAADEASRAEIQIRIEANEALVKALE
Sequence (A5GFX4 2-51 partner): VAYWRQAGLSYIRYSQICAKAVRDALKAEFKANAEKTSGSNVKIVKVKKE
Sequence (Q2EN81 24-213 partner): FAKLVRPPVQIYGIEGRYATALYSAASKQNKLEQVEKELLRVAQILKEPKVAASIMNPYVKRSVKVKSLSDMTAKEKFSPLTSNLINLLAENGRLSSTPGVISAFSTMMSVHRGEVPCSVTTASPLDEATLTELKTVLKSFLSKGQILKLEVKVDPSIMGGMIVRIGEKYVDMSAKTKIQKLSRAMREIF
Sequence (Q35915 whole entry partner, the tested form may be a part): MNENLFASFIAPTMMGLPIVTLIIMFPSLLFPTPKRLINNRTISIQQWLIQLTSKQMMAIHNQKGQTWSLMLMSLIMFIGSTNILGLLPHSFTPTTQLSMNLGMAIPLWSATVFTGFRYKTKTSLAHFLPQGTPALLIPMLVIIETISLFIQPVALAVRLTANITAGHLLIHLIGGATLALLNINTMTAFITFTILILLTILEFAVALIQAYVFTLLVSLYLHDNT
Value type: pIC50
Value format note: pIC50 is -log10 of concentration (mol/L); just state the number.

Could you tell me which pIC50 is on file for COc1ccc2[nH]cc(CCNC(C)=O)c2c1 [melatonin] ?
2.18

These entries and their values trace back to paper PMC11985001.
